- test-summary: label from the status in PepcDB records

construct-sequence	protein production
LRKMIALIHKDYAKNLRLETLASVFNYNRAYLGKLFKNYTGEYFNTYLDKVRIENGKRLLQKGYKVYEVAEKIGYANVDYFHRKFKKYVGVSPSTFRKR	not failed
MSYIPPHKRHSKDPTKPTPVPDSLVTKFKKNLDFKSSTSSVKRNKIIYSGDSISKWFLVGSNGIEDDVPSYVKFVPLSSDSVECRKGEKPSILMNNNVQNVNMNIGERKDERTQWLLVAEKVMEDLVLAYERVKTEMKEHHHVSRLVARFGKIFFYGSQAGPVAECSLKNLNKMFSTDLPMSYLQHIKSNVVPSHGFSIDKEKETYTVKVSHYSRPNATINCKCTRKEDGRLSMYKASLEFYVDLNPVRHLVVDVSCIDKNLDMRLTLTAKREITYLSDKEIGDIKALLESATVDPNVKGGLRWPFGKALSEDGYKEFEVCHVRATIYKNKTLRLRVRETDRFNETTGTGETKREVSLTLKDIDTKIQEQNTERGCVLEMLRDALGTIWDFLHCDAYLT	not failed
MTQIARISDTGTERRLQAERLIGAKALQEAQALRFNVFSGEFNAKLKGAELGLDMDDYDVHCSHIGVRDLNTGRLVATTRLLDHQAANSLGRFYSEEEFSLHGLVQLKGPILEIGRTCVDPAYRNGGTIAVLWGELAEVLNQGGYSYLMGCASIPMQDGGVQAQAIMQRLRERYLCTEHLRAEPKNPLPSLDIPSNVIAEMPPLLKAYMRLGAKICGEPCWDEDFQVADVFILLKRDELCPRYARHFKAAV	failed
MASKITQPDKYSGFLNNYSDLKETTSATGKPVLRWVDPSFDQSKYDSIVWNPITYYPVPKPSTQVGQKVLDKILNYTNTEMKEAIAQRKPLVTTAGPRSLIFRGAITGVDTSKEGLQFYEVVPVALVVAGTQMATGHRTMDTRLYFEGELIDAATNKPVIKVVRQGEGKDLNNESTPMAFENIKQVIDDMATDATMFDVN	failed
MSTPSPALFFNTVNAYQRSAAIKAAVELNVFTAISQGIESSQSLAQKCQTSERGMRMLCDYLVIIGFMTKQAEGYRLTSDSAMFLDRQSKFYVGDAIEFLLSPMITNGFNDLTAAVLKGGTAISSEGTLSPEHPVWVQFAKAMSPMMANPAQLIAQLVNENKIEPLKVLDISASHGLFGIAVAQHNPNAEIFGVDWASVLEVAKENARIQGVASRYHTIAGSAFEVDYGNDYDLVLLPNFLHHFDVATCEQLLRKIKTALAVEGKVIVFDFIPNSDRITPPDAAAFSLVMLATTPNGDAYTFAEYESMFSNAGFSHSQLHSLPTTQQQVIVAYK	not failed
IIAWLGPQLRELTPVDTNKDPKTRLQEFLQSRGCDLPRYEVVDIQGEPHCRTFFVDCEVALLSDKTHGHGGSRRIAEQVAAAAALVALGVENGHD	failed
MTSGGNSIEPSVVAEAEKMLFCYQYDQTITISITSSADPCPLCNGGFLDEYVDPNPNPIPNLILPMSDPISSRFSFIPVMDFTNPSFLGESMEPQSTQQQLNAFDPNQLSDQANPLAGNHGDYFFGRGLEDLI	failed

* * *

- test-summary: label from the status in PepcDB records
observation-type: protein production

construct-sequence	observation-type	result
AKGKNLIIVQLESFQRNLTNIKIDGQSITPTLDSLQNETMYSNKFFQTVSKSNTADAEWSVYTSTFPSGYYTNTQTYGDRVIPSMPRLLGKNDYTTSTFHTNDASFYNRDEFYPAVGFDKFYDRKFFGDEDVIGFSPSDEVLYNKAFPILEKQYKNNQKFYAQLISVSSHMPFNIPEEKQEINLPSDLKDTELGNYFEAVHYADKQLGAFIQKLKDSGIWEDSVVVFYGDHHIIKTDQLPEEQKKYVNRSTELKADPADDYRIPFFLHYPGMKNPGEIKNVGGEIDIMPTVMNLLGINTGNQIMFGTDILNSTNNYVPERYTMPEGSYFTDSYMYQP	protein production	failed
MAAKSLVDIAYESDSSSDSSDEGDVPCLPKDEVNERKLQNLQRKAFYNLLQTFAFENSTMSNKRTEIIGKLMNEWGIANETHISFADQIQKKLLTLKQTKHSGVKETQIPATPLTNTATPSTFFVPKPVKSWGSVNPESLIGKWVSIRLPDKAKFTEYIIKAYDAEKEMHSLLTETSNPMEVDCIDPFRWIDIRDISPNDIMWEGGQKPNFAAPNQSAAATGQ	protein production	failed
MNNTGLSVKKVVAIGIGSAIYVILARFTSIPTPIPNTNIELVFPFLAFFASIYGATVGFSVGFIGHALSDFIMYGQTWWSWVLATGILGWIIGLAYKRLDLKNGIFGLKQIILFNIVQIIANILAWIVVAPIGDIIIYSEPANKVFVQGISATISNGISILIIGTILLKAYASTKIKKGSLRKED	protein production	failed

* * *

- test-summary: label from the status in PepcDB records
observation-type: protein production

construct-sequence	result
MIGWTLGQYFFIRYLKMTCYFLGGIFVLALLIDFTENSGRLSSLPRYTAKDAFLISVLRIPFIMQQLIPFIALFSAMAMLISLNRKSELVVTRSIGISAWQFLMPACFGAFLFGLFSILLVNPLAAWGFSQAERMMTEWRSKNNNVLTSLHNTRILWLTQRTHSGRTTIGAKSITDQGLSLIDATFVQYNDNATIKNWINSRKATLINGAWLLTDGTIYKIGHPPEKFSELQIQTTLKPEFLTERLVNPATIPFYQLPTKIMIARSFGYSANNFDMYLQSLIALPALLIAMTLIAAVVSLNFTRFGQSKILILGGVIAGFSLYVISILVQAFGNAGYIPPIIAAWTPVFIALFLGISFLLHKEDG	failed
NILFGISDTQECYNAIKFAVKLAHSLKEVRFTLLHVSMEVFIYSESGMMDYGQTEALEEEKAKALLKQFEDAFKKENIECESVLKSGDLIDVVLDMAKDYDLLLIGASESNLLYRLFISHQNSLVEQSSIPVVIAK	failed

* * *

- test-summary: label from the status in PepcDB records

construct-sequence	protein production
MKKLFTNTIFIQSNLERLSTILKSPQNLSKWVPDINSVSPKDDYFLISRSSSALNNFEKISVTSQDNSIIYTSTGGRLEYELHFDLTNKDDRTLVEQTLLVDETLTKLPLTLLAPIAKHAFHENLSSLERLIAISLEHHHHHH	failed
MATRTQARGAVVELLYAFESGNEEIKKIASSMLEEKKIKNNQLAFALSLFNGVLEKINEIDALIEPHLKDWDFKRLGSMEKAILRLGAYEIGFTPTQNPIIINECIELGKLYAEPNTPKFLNAILDSLSKKLTQKPLN	failed

* * *

- test-summary: label from the status in PepcDB records
observation-type: protein production

construct-sequence	result
MKKQFLFLLLAVILLSSCATATLSEFPGVGRVKQYDFYSYDIPPAFDGFRIGFASDFHYESRFKRSELNSAVRALKSMHADVLLLGGDYRGKKGGNLDTLFTALSRVYTPYGTFAVMGNHDYGYCYSEVVEAMQKNHVRLMEHKSYKLMKDGQYIIVSGVRNPFDLKKNGDSPSQHFPADDFIILLTHTPDYAEDTDVSNANLVLAGHTHGGQVSLFKKYSPVKHSIYGNRFLTGWKENSKGTPIIITNGLGTSRVDVRLFTPSEVVLVVLHRVEKQKE	failed
MKGKEIMEIKRILVSRTDKIGDLVLSIPSFFMLKKMYPNAELVVIVRKYNVDIVKNLPYIDRIVIIDEYSKAELLEKIAYFKADVFIALYNDSYIASLARASKAKIKIGPISKLSSFFTYNKGVLQKRSLSLKNEGQYNLDLVTKLDRKRFAILYELNTKLILTDENKKVADVYFKENSIEGKTLVVNPFIGGSAKNITDEQYISILKKIKEKMPDLNIIITSYTTDEERTEKLCKDIGKDKIFAFSNGASILNTASIIDRADVYFGASTGPTHIAGALGKKIVAIYPHKKTQSPTRWGVLGNSNVRYIIPDENNPNEDYKNPYFDNFTKDMEDKVVKAILEALK	failed
MHLTKTWLAQLPLTDIQQVQPVSGGDINAAFQIITRHHQYFLKVQPHNDVTFFDHEVAGLRLLGAVTKTPRVIASGTIATDGYLLLDWLATGTGSQSALGAAVAKVHHQHHAQFGLDHDFTAGKLPKINHWQTDWATFYTQQRLDVLVNLAKEHHLWSETREMHYHRLRQQLLQDSHMHTVKPSLLHGDLWSGNYLFDTTGTPVLIDPDVFYGDREMDLAMTTIFGGFDTDFYQAYQAAYPVAPGMQDRLPSYQLYYLLAHLNLFGETYGPAVDRILMQY	failed
MVQIAGTPVPLSAKSRGPNALSSLLAALFLLLSQPASGAEAKQCIDNAELDAADKAFNSLHYAKADSLYQSMLQTGDQSSTLYWKLARLNISIAEAIDPSERKKRIPFYNKAVEYARKSVQLDENNASAHTWLAAALALKADKIGAKEKLNRAAEIKRELDKALALNPNDDVAWSMLGSYNFEASKIGWFSRFMGSTFVGKMPKGSREEAEKDFKKAISLNPRVIRHYHELALLYLEEDRKQEALNTLRIAETRPVLMKSDVRRLKEIKKLIAKLSKEIEEK	failed
